Values from patent US20170290876A1

Biological target: T1, human VEGF (human, UniProt P15692 207-395, biotinylated (site not stated))
T1 construct: Biotinylated human VEGF generated internally; also called hVEGF; hVEGF-biotin
T1 sequence: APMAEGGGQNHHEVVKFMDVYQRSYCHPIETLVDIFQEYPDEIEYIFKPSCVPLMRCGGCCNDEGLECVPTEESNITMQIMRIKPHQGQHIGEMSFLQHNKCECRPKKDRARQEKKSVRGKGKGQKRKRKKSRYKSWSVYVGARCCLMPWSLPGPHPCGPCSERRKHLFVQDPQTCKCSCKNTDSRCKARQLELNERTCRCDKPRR
Experiment: Biacore SPR, hVEGF
# Kd per entry
Number only, in pM; omit the unit.

The following binders have reported results that may help.
binder | Kd / pM
NVS4 heavy chain variant D55Q (Fab, V domains shown, CDR variant of NVS4) VH: EVQLVESGGGLVQPGGSLRLSCTASGFSLTDYYYMTWVRQAPGKGLEWVGFIDPQDDPYYATWAKGRFTISRDNSKNTLYLQMNSLRAEDTAVYYCAGGDHNSGWGLDIWGQGTLVTVSS VL: EIVMTQSPSTLSASVGDRVIITCQASEIIHSWLAWYQQKPGKAPKLLIYLASTLASGVPSRFSGSGSGAEFTLTISSLQPDDFATYYCQNVYLASTNGANFGQGTKLTVLK | 82.3
NVS4 light chain variant T96R (Fab, V domains shown, CDR variant of NVS4) VH: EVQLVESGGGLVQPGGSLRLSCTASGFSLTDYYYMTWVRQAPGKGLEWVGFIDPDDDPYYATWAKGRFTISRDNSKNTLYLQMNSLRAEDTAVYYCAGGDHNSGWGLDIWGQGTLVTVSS VL: EIVMTQSPSTLSASVGDRVIITCQASEIIHSWLAWYQQKPGKAPKLLIYLASTLASGVPSRFSGSGSGAEFTLTISSLQPDDFATYYCQNVYLASRNGANFGQGTKLTVLK | 2.44

// next entry
Exercise: Specify reported Kd for the binder shown: NVS4 heavy chain variant D108Q (Fab, V domains shown, CDR variant of NVS4) VH: EVQLVESGGGLVQPGGSLRLSCTASGFSLTDYYYMTWVRQAPGKGLEWVGFIDPDDDPYYATWAKGRFTISRDNSKNTLYLQMNSLRAEDTAVYYCAGGDHNSGWGLQIWGQGTLVTVSS VL: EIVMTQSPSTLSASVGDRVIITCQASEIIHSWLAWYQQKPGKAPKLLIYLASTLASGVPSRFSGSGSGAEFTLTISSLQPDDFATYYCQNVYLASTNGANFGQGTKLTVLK
Solution: 6.68
